The values you see were collected from patent US10202378B2.

Attribute: IC50
Molecular target: TAF1-BD2 (Homo sapiens)
Experiment: TAF1-BD2 TR-FRET Binding Assay
Settings: read-out: TAF1-BD2 HTRF IC50
Experimental: IC50 Measurements for Inhibitors Using TAF1-BD2 TR-FRET Binding Assay His/Flag epitope tagged TAF1-BD21504-1635 was cloned, expressed, and purified to homogeneity. TAF1-BD2 binding and inhibition was assessed by monitoring the engagement of a biotinylated small molecule compound 1000 with the target using the TR-FRET assay technology (Perkin-Elmer). […]
// units = nM; emit number, no label

As a guide, the following entries are already answered.
compound	target.desc	unit.descriptor	IC50
CCOC(=O)c1c(C)[nH]c2c(=O)n(C)cc(C#CC(O)(c3cccc(N4CCOCC4)c3)C(F)(F)F)c12 (stereo not shown)	TAF1-BD2 (Homo sapiens)	nM	79.5
Cc1[nH]c2c(=O)n(C)cc(C#CC(C)(O)C(C)C)c2c1C(=O)OCC(C)C (stereo not shown)	TAF1-BD2 (Homo sapiens)	nM	62
CCOC(=O)c1c(C)[nH]c2c(=O)n(C)cc(C#CC(O)(c3cccc(N(C)C)c3)C(F)(F)F)c12 (stereo not shown)	TAF1-BD2 (Homo sapiens)	nM	76.9

For CCOC(=O)c1c(C)[nH]c2c(=O)n(C)cc(C#CC(O)(c3cccc(Oc4ccccc4)c3)C(F)(F)F)c12 (stereo not shown) the compound record lists IC50 as 699

For CCOC(=O)c1c(C)[nH]c2c(=O)n(C)cc(C#CC(C)(O)C3CC3)c12 (single isomer, unassigned) [Example 92b] the compound record lists IC50 as 230

For `Cc1[nH]c2c(=O)n(C)cc(C#CC(C)(C)O)c2c1C(=O)OCC(C)C` the compound record lists IC50 as 29.9

For CCOC(=O)c1c(C)[nH]c2c(=O)n(C)cc(C#CC(O)(c3ccccc3)C(F)F)c12 (single isomer, unassigned) [Example 93a] the compound record lists IC50 as 65.5

----------
target: TAF1-BD2 (Homo sapiens); experiment: TAF1-BD2 TR-FRET Binding Assay; details: read-out: TAF1-BD2 HTRF IC50
assay.metric: IC50

compound	observed.measurement
Cc1[nH]c2c(=O)n(C)cc(C#CC(C)(O)C3CC3)c2c1-c1nnc(C2CCOC2)o1 (single isomer, unassigned) [Example 96a]	40.7 nM
CC(=O)NCc1nnc(-c2c(C)[nH]c3c(=O)n(C)cc(C#CC(C)(O)C4CC4)c23)o1 (centres unmarked)	86.4 nM
CCOC(=O)c1c(C)[nH]c2c(=O)n(C)cc(C#CC(O)(c3cccc(C#N)c3)C(F)(F)F)c12 (centres unmarked)	69.2 nM
CCOC(=O)c1c(C)[nH]c2c(=O)n(C)cc(C#CC(O)(c3ccccc3)C(F)(F)F)c12 (centres unmarked) [Example 73]	69.5 nM
CCc1nnc(-c2c(C)[nH]c3c(=O)n(C)cc(C#CC(C)(O)C4CC4)c23)o1 (centres unmarked)	44.8 nM

For Cc1[nH]c2c(=O)n(C)cc(C#CC(O)(c3ccccc3)C(F)(F)F)c2c1C(=O)OCC(C)C (centres unmarked) the compound record lists IC50 as 280 nM

For `CCNC(=O)c1c(C)[nH]c2c(=O)n(C)cc(C#CC(C)(C)O)c12` the compound record lists IC50 as 1630 nM

For `CCOC(=O)c1c(C)[nH]c2c(=O)n(C)cc(C#CC(C)(C)CO)c12` the compound record lists IC50 as 189 nM

----------
biological target: TAF1-BD1 (Homo sapiens, UniProt P21675); test: TAF1-BD1 TR-FRET Binding Assay; conditions: read-out: TAF1-BD1 HTRF IC50
pIC50: −log10 of the molar value.
Label Criterion met when pIC50 is at or above 6; otherwise label Criterion not met.

Reference set, count: 5
molecule	target.desc	group
Cc1[nH]c2c(=O)n(C)cc(C#CC(C)(C)O)c2c1C(=O)OCc1ccccc1	TAF1-BD1 (Homo sapiens, UniProt P21675)	Criterion met
CCOC(=O)c1c(C)[nH]c2c(=O)n(C)cc(C#Cc3cncn3C)c12	TAF1-BD1 (Homo sapiens, UniProt P21675)	Criterion met
C=CCCn1cc(C#C[C@@](C)(O)c2cc(C)on2)c2c(C(=O)OCC(C)C)c(C)[nH]c2c1=O	TAF1-BD1 (Homo sapiens, UniProt P21675)	Criterion not met
CC(=O)NCc1nnc(-c2c(C)[nH]c3c(=O)n(C)cc(C#CC(O)(c4ccccc4)C(F)(F)F)c23)o1 (stereo not shown)	TAF1-BD1 (Homo sapiens, UniProt P21675)	Criterion met
CCOC(=O)c1c(C)[nH]c2c(=O)n(C)cc(C#CC(C)(C)CO)c12	TAF1-BD1 (Homo sapiens, UniProt P21675)	Criterion met

Request: Determine whether this molecule has pIC50 no lower than 6: CCOC(=O)c1c(C)[nH]c2c(=O)n(C)cc(C#CC(C)(O)c3cccc(C#N)c3)c12 (stereo not shown)
Response: Criterion met

Request: Determine whether this molecule has pIC50 no lower than 6: `CCOC(=O)c1c(C)[nH]c2c(=O)n(C)cc(C#C[C@](C)(O)c3ncccn3)c12`
Response: Criterion not met

Request: Determine whether this molecule has pIC50 no lower than 6: `CCOC(=O)c1c(C)[nH]c2c(=O)n(C)cc(C#Cc3ccccc3OC(F)(F)F)c12`
Response: Criterion not met

Request: Determine whether this molecule has pIC50 no lower than 6: `Cc1cc([C@](C)(O)C#Cc2cn(C)c(=O)c3[nH]cc(C(=O)OCC(C)C)c23)no1`
Response: Criterion met

Request: Determine whether this molecule has pIC50 no lower than 6: `CCOC(=O)c1c(C)[nH]c2c(=O)n(C)cc(C#Cc3cccc(O)c3)c12`
Response: Criterion met

Request: Determine whether this molecule has pIC50 no lower than 6: Cc1[nH]c2c(=O)n(C)cc(C#CC(O)(c3ccccc3)C(F)(F)F)c2c1-c1nnc(C2CC2)o1 (stereo not shown)
Response: Criterion met

Request: Determine whether this molecule has pIC50 no lower than 6: `CCOC(=O)c1c(C)[nH]c2c(=O)n(C)cc(C#Cc3ccsc3)c12`
Response: Criterion met

----------
target: TAF1-BD2 (Homo sapiens); experiment: TAF1-BD2 TR-FRET Binding Assay; settings: read-out: TAF1-BD2 HTRF IC50
Attribute: pIC50
Scale note: pIC50 = -log10(concentration in M).

As a guide, the following entries are already answered.
compound	assay.metric	observed.measurement
Cc1[nH]c2c(=O)n(C)cc(C#CC(O)(c3ccccc3)C(F)(F)F)c2c1-c1nnc(C2CC2)o1 (stereo not shown) [Example 180]	pIC50	7.33
CCOC(=O)c1c(C)[nH]c2c(=O)n(C)cc(C#CC(C)(O)c3cccc(C#N)c3)c12 (stereo not shown) [Example 19]	pIC50	7.52
COc1ccccc1COC(=O)c1c(C)[nH]c2c(=O)n(C)cc(C#CC(C)(C)O)c12 [Example 113]	pIC50	7.62
C=CCCn1cc(C#CC(C)(C)O)c2c(C(=O)OCC)c(C)[nH]c2c1=O [Example 49]	pIC50	6.94
Cc1[nH]c2c(=O)n(C)cc(C#CC(C)(O)C3CC3)c2c1C1=NCC(C)(C)O1 (stereo not shown) [Example 204]	pIC50	6.83
C=CCCn1cc(C#CC(C)(O)C2CC2)c2c(C(=O)OCC(C)C)c(C)[nH]c2c1=O (stereo not shown) [Example 122]	pIC50	6.94
CCOC(=O)c1c(C)[nH]c2c(=O)n(C)cc(C#CC(O)(c3cccc(C(N)=O)c3)C(F)(F)F)c12 (stereo not shown) [Example 197]	pIC50	7.47
CCOC(=O)c1c(C)[nH]c2c(=O)n(C)cc(C#CCCO)c12 [Example 82]	pIC50	6.47
CCOC(=O)c1c(C)[nH]c2c(=O)n(C)cc(C#C[C@@](C)(O)c3nnc(C)o3)c12 [Example 64]	pIC50	6.80
Cc1[nH]c2c(=O)n(C)cc(C#CC(C)(C)O)c2c1C(=O)OCc1ccncc1 [Example 112]	pIC50	6.21

# pIC50 measured on TAF1-BD2 (Homo sapiens) for item Cc1[nH]c2c(=O)n(C)cc(C#CC(C)(O)C3CC3)c2c1C(=O)OCc1nccs1 (stereo not shown) [Example 109] = 7.17

# pIC50 measured on TAF1-BD2 (Homo sapiens) for item Cc1[nH]c2c(=O)n(C)cc(C#CC(C)(O)C3CC3)c2c1C(=O)OCC(C)C (stereo not shown) [Example 126] = 7.40

----------
Attribute: pIC50
biological target: TAF1-BD1 (Homo sapiens, UniProt P21675); assay: TAF1-BD1 TR-FRET Binding Assay; conditions: read-out: TAF1-BD1 HTRF IC50
Scale note: pIC50 = -log10(concentration in M).

compound	pIC50
CCOC(=O)c1c(C)[nH]c2c(=O)n(C)cc(C#CC(O)(c3cccc(-c4ccccc4C)c3)C(F)(F)F)c12 (stereo not shown)	5.12
CCOC(=O)c1c(C)[nH]c2c(=O)n(C)cc(C#Cc3ccc(OC)cc3)c12	6.50
CCOC(=O)c1c(C)[nH]c2c(=O)n(C)cc(C#CC(C)(C)C(N)=O)c12	6.42
CCOC(=O)c1c(C)[nH]c2c(=O)n(C)cc(C#CC(C)(O)c3cccnc3)c12 (stereo not shown)	6.63
Cc1cc([C@](C)(O)C#Cc2cn(C)c(=O)c3[nH]c(C)c(-c4nnc(C5CC5)o4)c23)no1	6.62
Cc1ccccc1COC(=O)c1c(C)[nH]c2c(=O)n(C)cc(C#CC(O)(c3ccccc3)C(F)(F)F)c12 (stereo not shown)	5.47
Cc1[nH]c2c(=O)n(C)cc(C#CC(O)(c3ccccc3)C(F)(F)F)c2c1C(=O)OCc1ccccc1C#N (stereo not shown)	5.79
Cc1[nH]c2c(=O)n(C)cc(C#CC(C)(O)C3CC3)c2c1-c1nnc(C2CCOC2)o1 (single isomer, unassigned) [Example 96a]	6.74

For `CCOC(=O)c1c(C)[nH]c2c(=O)n(C)cc(C#CC(C)(C)C)c12` the compound record lists pIC50 as 6.25

For `Cc1[nH]c2c(=O)n(C)cc(C#CC(C)(C)O)c2c1C(=O)NC(C)(C)C` the compound record lists pIC50 as 5.44

For `CCOC(=O)c1c(C)[nH]c2c(=O)n(C)cc(C#CC(C)(C)OCc3ccccc3)c12` the compound record lists pIC50 as 6.07

For CC(=O)c1c(C)n(C)c2c(=O)[nH]cc(C#CC(C)(C)O)c12 [Example 199b] the compound record lists pIC50 as 4.70

For `CCOC(=O)c1c(C)[nH]c2c(=O)n(C)cc(C#CC(C)(C)C(=O)NC)c12` the compound record lists pIC50 as 6.10

For Cc1[nH]c2c(=O)n(C)cc(C#CC(C)(O)C3CC3)c2c1-c1nnc(C2CCOC2)o1 (single isomer, unassigned) [Example 96b] the compound record lists pIC50 as 5.94
